Test system: panel of 78 cancer cell lines
Experiment: Cell panel 3D methylcellulose CellTiter-Glo proliferation
Type: cell-based
Settings: Homo sapiens, NCI-H1299, NCIH1299; NRAS Q61K; Lung; read-out: Proliferation Inhibition (EC50)
attribute-measured: pEC50
Units for pEC50: none; it is -log10 of a concentration expressed in mol/L.

Q. Please look up its pEC50: CCn1c(-c2cc(N3CCN(C)CC3)cnc2[C@H](C)OC)c2c3cc(ccc31)-c1csc(n1)C[C@H](NC(=O)[C@H]1C[C@@H]1C)C(=O)N1CCC[C@H](N1)C(=O)OCC(C)(C)C2
A. 7.58

----------
Assay: Mouse blood and tissue PK (LC/MS-MS)
Assay type: in vivo
Conditions: BALB/c nude, mouse, ear skin, oral, 25 mg/kg, sheet Ear Skin, model Capan-2, study Capan-2 #3_PHA 2023, 25 mg/kg, 8h; read-out: RMC-6236 (nM) Tumor
attribute-measured: concentration at 8 h (nM)
Numeric only. Scale: nM

Q. Find the recorded concentration at 8 h belonging to CCn1c(-c2cc(N3CCN(C)CC3)cnc2[C@H](C)OC)c2c3cc(ccc31)-c1csc(n1)C[C@H](NC(=O)[C@H]1C[C@@H]1C)C(=O)N1CCC[C@H](N1)C(=O)OCC(C)(C)C2 and report it.
A. 1360
